This collection of values is drawn from the RepoRT retention time repository.

Assay overview: Agilent ZORBAX 300 SB-C18, 150 × 1 mm, 3.5 µm; A: water + 0.01% heptafluorobutyric acid; B: acetonitrile + 0.01% heptafluorobutyric acid; gradient (min/%B) 0/0 100/90
Condition context: stereoisomer not certain
Give 1.0 when the value for LC retention time is at least 9 min. Give 0.0 when it is less.

Reference set (6 entries):
Molecule: Cc1ccc(C)n1Cc1ccccc1
Label class: 1.0
//
Molecule: CCCCCC[N+](C)(C)C
Label class: 0.0
//
Molecule: Cc1cncc(C)n1
Label class: 0.0
//
Molecule: C1=CCNC1
Label class: 0.0
//
Molecule: C#CC(C)(N)CC (stereo not drawn)
Label class: 0.0
//
Molecule: O=C1CN(C(=O)CCCc2c[nH]c3ccccc23)c2ccccc2N1
Label class: 1.0

Now consider the entry below.
[ask] Quick check, LC retention time >= 9 min? Cc1ccc2cc(-c3ccncc3)[nH]c2c1
[reply] 1.0
